Tested on: Trypanosoma cruzi epimastigotes (Tulahuen CL98 strain)
protocolDetails: Antitrypanosomal activity against Trypanosoma cruzi epimastigotes (parasite count)
Type: cell-based
experimentalContext: T. cruzi epimastigotes, 48 h, mean ± S.E. of three experiments; read-out: Antitrypanocidal activity IC50
In plain terms, low IC50, meaning strictly below 3 µM, gives condition met, and everything else gives condition not met.

molecule | cat
CCCC(=O)N(C(=O)CCC)C1=C(Cl)C(=O)c2ccccc2C1=O | condition met
O=C1C(Cl)=C(N(C(=O)CCl)C(=O)CCl)C(=O)c2ccccc21 | condition not met
CC1CS(=O)(=O)CCN1/N=C/c1ccc([N+](=O)[O-])o1 (centres unmarked) [Nifurtimox, reference compound] | condition not met
O=C1C(Cl)=C(N(C(=O)c2ccccc2Cl)C(=O)c2ccccc2Cl)C(=O)c2ccccc21 | condition met
O=C1C(Cl)=C(N(C(=O)c2ccc(F)cc2)C(=O)c2ccc(F)cc2)C(=O)c2ccccc21 | condition not met
O=C1C(Br)=C(N(C(=O)c2ccc(F)cc2)C(=O)c2ccc(F)cc2)C(=O)c2ccccc21 | condition met
O=C1C(Cl)=C(N2C(=O)COCC2=O)C(=O)c2ccccc21 | condition not met
O=C1C(Cl)=C(N2C(=O)CCC2=O)C(=O)c2ccccc21 | condition met

###

Test system: Balb/C 3T3 mouse fibroblasts (clone A31)
protocolDetails: MTT cytotoxicity assay on Balb/C 3T3 mouse fibroblasts
Assay type: cell-based
experimentalContext: Balb/C 3T3 mouse fibroblasts, 48 h, MTT, mean ± S.E. of three experiments; read-out: Cytotoxicity IC50
pIC50: −log10 of the molar value.
readoutType: pIC50

compound | targetEntity | readoutValue
CCCC(=O)N(C(=O)CCC)C1=C(Cl)C(=O)c2ccccc2C1=O [IMDNQ3] | Balb/C 3T3 mouse fibroblasts (clone A31) | 4.66
O=C1C(Cl)=C(N(C(=O)CCl)C(=O)CCl)C(=O)c2ccccc21 [IMDNQ11] | Balb/C 3T3 mouse fibroblasts (clone A31) | 4.71
O=C1C(Cl)=C(N2C(=O)COCC2=O)C(=O)c2ccccc21 [IMDNQ4] | Balb/C 3T3 mouse fibroblasts (clone A31) | 4.45
O=C1C(Cl)=C(N2C(=O)c3ccccc3C2=O)C(=O)c2ccccc21 [IMDNQ2] | Balb/C 3T3 mouse fibroblasts (clone A31) | 3.60

###

Each record here notes measured IC50.
targetEntity: purified Trypanosoma cruzi tublin (Trypanosoma cruzi, UniProt P08562+Q27352)
protocolDetails: Tubulin assembly assay
experimentalContext: purified T. cruzi tubulin 1.2 mg/ml, absorbance at 405 nm, 30° C.; read-out: Tubulin polymerization Inhibition IC50
readoutType: IC50 (µM)

structureSmilesString | targetEntity | readoutType | censoringOperator | readoutValue
O=C1C(Cl)=C(N(C(=O)c2cccc(Cl)c2)C(=O)c2cccc(Cl)c2)C(=O)c2ccccc21 | purified Trypanosoma cruzi tublin (Trypanosoma cruzi, UniProt P08562+Q27352) | IC50 | = | 8
O=C1C(Cl)=C(N2C(=O)c3ccccc3C2=O)C(=O)c2ccccc21 | purified Trypanosoma cruzi tublin (Trypanosoma cruzi, UniProt P08562+Q27352) | IC50 | = | 12
O=C1C(Cl)=C(N2C(=O)CCC2=O)C(=O)c2ccccc21 | purified Trypanosoma cruzi tublin (Trypanosoma cruzi, UniProt P08562+Q27352) | IC50 | = | 6
CCCC(=O)N(C(=O)CCC)C1=C(Cl)C(=O)c2ccccc2C1=O | purified Trypanosoma cruzi tublin (Trypanosoma cruzi, UniProt P08562+Q27352) | IC50 | = | 3.2
O=C1C(Cl)=C(N(C(=O)CCl)C(=O)CCl)C(=O)c2ccccc21 | purified Trypanosoma cruzi tublin (Trypanosoma cruzi, UniProt P08562+Q27352) | IC50 | > | 40

###

Here the recorded IC50 at 48 h is given for each entry.
protocolDetails: MTT cytotoxicity assay on Balb/C 3T3 mouse fibroblasts
Type: cell-based
experimentalContext: mouse, Cytotoxicity IC50
Experimental: A cytotoxicity assay was performed with representive analogs IMNDQ1 through IMNDQ11. […] MTT is a yellow tetrazolium salt that is reduced to purple formazan crystals by metabolically active cells. […] The absorbance was measured spectrophotometrically at 570 nm in a plate reader. […] All experiments were done in triplicate, the means and standard errors (S.E.) were determined. Data were analyzed by one way ANOVA and Tukey's multiple comparison test using GraphPad PRISM software version 5.00. […]

structureSmilesString | IC50 at 48 h
O=C1C(Cl)=C(N(C(=O)c2ccc(F)cc2)C(=O)c2ccc(F)cc2)C(=O)c2ccccc21 | 21.8 µM
O=C1C(Br)=C(N(C(=O)c2ccccc2Cl)C(=O)c2ccccc2Cl)C(=O)c2ccccc21 | 14.2 µM
O=C1C(Br)=C(N(C(=O)c2ccc(F)cc2)C(=O)c2ccc(F)cc2)C(=O)c2ccccc21 | 12.8 µM
O=C1C(Cl)=C(N(C(=O)c2ccccc2Cl)C(=O)c2ccccc2Cl)C(=O)c2ccccc21 | 26.5 µM

###

Tested on: Balb/C 3T3 mouse fibroblasts (clone A31)
protocolDetails: MTT cytotoxicity assay on Balb/C 3T3 mouse fibroblasts
Assay type: cell-based
experimentalContext: mouse, 48 h
pIC50: −log10 of the molar value.
pIC50: recorded values

structureSmilesString | pIC50
O=C1C(Cl)=C(N(C(=O)c2cccc(Cl)c2)C(=O)c2cccc(Cl)c2)C(=O)c2ccccc21 | 3.21
O=C1C(Cl)=C(N(C(=O)c2ccc(Cl)cc2)C(=O)c2ccc(Cl)cc2)C(=O)c2ccccc21 | 4.75

###

compound | melting point
O=C1C(Cl)=C(N(C(=O)c2cccc(Cl)c2)C(=O)c2cccc(Cl)c2)C(=O)c2ccccc21 [IMDNQ10] | 258 to 260 °C
O=C1C(Br)=C(N(C(=O)c2ccc(Cl)cc2)C(=O)c2ccc(Cl)cc2)C(=O)c2ccccc21 [Example 23] | 266 to 269 °C
O=C1C(Cl)=C(N(C(=O)c2ccccc2Cl)C(=O)c2ccccc2Cl)C(=O)c2ccccc21 [IMDNQ8] | 217 to 218 °C
COc1ccc(C(=O)N(C(=O)c2ccc(OC)cc2)C2=C(Cl)C(=O)c3ccccc3C2=O)cc1 [Example 28] | 283 to 287 °C
CC(C)(C)c1ccc(C(=O)N(C(=O)c2ccc(C(C)(C)C)cc2)C2=C(Cl)C(=O)c3ccccc3C2=O)cc1 [Example 24] | 257 to 260 °C
O=C1C(Br)=C(N(C(=O)c2ccccc2)C(=O)c2ccccc2)C(=O)c2ccccc21 [Example 21] | 234 to 238 °C
O=C1C(Br)=C(N(C(=O)c2ccc(F)cc2)C(=O)c2ccc(F)cc2)C(=O)c2ccccc21 [IMDNQ5] | 170 to 172 °C
O=C1C(Br)=C(N(C(=O)c2cccc(Cl)c2)C(=O)c2cccc(Cl)c2)C(=O)c2ccccc21 [Example 22] | 204 to 206 °C
O=C1C(Cl)=C(N(C(=O)c2ccc(Cl)cc2)C(=O)c2ccc(Cl)cc2)C(=O)c2ccccc21 [IMDNQ7] | 212 to 213 °C
O=C1C(Br)=C(N(C(=O)c2ccccc2Cl)C(=O)c2ccccc2Cl)C(=O)c2ccccc21 [IMDNQ6] | 232 to 234 °C
O=C1C(Cl)=C(N(C(=O)c2ccccc2)C(=O)c2ccccc2)C(=O)c2ccccc21 [Example 20] | 294 to 297 °C
O=C1C(Cl)=C(N(C(=O)c2ccc(F)cc2)C(=O)c2ccc(F)cc2)C(=O)c2ccccc21 [IMDNQ9] | 284 to 286 °C

###

Test system: Trypanosoma cruzi epimastigotes (Tulahuen CL98 strain)
protocolDetails: Antitrypanosomal activity against Trypanosoma cruzi epimastigotes (parasite count)
Format: cell-based
experimentalContext: ratio of IC50 for fibroblast cells/IC50 for parasites
Selectivity Index (Cytotoxicity/Activity) values for the molecules below.
readoutType: Selectivity Index (Cytotoxicity/Activity)

structureSmilesString | readoutValue
O=C1C(Br)=C(N(C(=O)c2ccc(F)cc2)C(=O)c2ccc(F)cc2)C(=O)c2ccccc21 | 5.70
O=C1C(Cl)=C(N(C(=O)c2ccccc2Cl)C(=O)c2ccccc2Cl)C(=O)c2ccccc21 | 10.17
O=C1C(Cl)=C(N(C(=O)CCl)C(=O)CCl)C(=O)c2ccccc21 | 3.20
O=C1C(Br)=C(N(C(=O)c2ccccc2Cl)C(=O)c2ccccc2Cl)C(=O)c2ccccc21 | 9.43
O=C1C(Cl)=C(N(C(=O)c2ccc(F)cc2)C(=O)c2ccc(F)cc2)C(=O)c2ccccc21 | 5.43
O=C1C(Cl)=C(N(C(=O)c2ccc(Cl)cc2)C(=O)c2ccc(Cl)cc2)C(=O)c2ccccc21 | 14.23
O=C1C(Cl)=C(N2C(=O)COCC2=O)C(=O)c2ccccc21 | 7.43
